# Species: Homo sapiens
# assay_text: In vitro cytotoxicity in Human ovary tumor cells
# Format: functional
# condition_description: Female gonad
Threshold check on IC50: strictly below 5 mg/L is satisfied; on or above 5 mg/L is not satisfied.

given_smiles: O=[N+]([O-])c1ccc(N(Cc2ccccc2)N=c2c3ccccc3oc3ccccc23)c([N+](=O)[O-])c1
class_name: not satisfied

Prompt line: Decide: IC50 of CC(=O)c1ccc2c(c1)/C(=N\Nc1ccc([N+](=O)[O-])cc1[N+](=O)[O-])c1ccc(C(C)=O)cc1-2 strictly below 5 mg/L?
Response line: satisfied

Prompt line: Hi there! Is IC50 for O=[N+]([O-])c1ccc(NN=C(c2ccccc2)c2ccccc2)c([N+](=O)[O-])c1 below 5 mg/L, do you know?
Response line: not satisfied

----------
# assay_text: In vitro cytotoxicity in Human breast tumor cells
# Type: functional, cell-based
assay_metric: log10(IC50) (log10 of the value in µg/mL)
In plain terms, each number is the log10 of measured IC50 in µg/mL.

// solved cases for log10(IC50) follow
given_smiles: C/C(=N\Nc1ccc([N+](=O)[O-])cc1)c1ccc(O)cc1
assay_metric: log10(IC50)
numeric_readout: 0.70
//
given_smiles: O=[N+]([O-])c1ccc(/N=N/c2c3cc(O)ccc3c(NNc3ccc([N+](=O)[O-])cc3[N+](=O)[O-])c3cc(O)ccc23)c([N+](=O)[O-])c1
assay_metric: log10(IC50)
numeric_readout: 0.40
//
given_smiles: O=[N+]([O-])c1ccc(/N=N/c2c3ccccc3c(O)c3c(O)c(O)ccc23)c([N+](=O)[O-])c1
assay_metric: log10(IC50)
numeric_readout: -2.15

Prompt line: Bench note: what log10(IC50) did O=[N+]([O-])c1ccc(/N=N/c2c3ccccc3c(O)c3c(O)c4ccccc4cc23)c([N+](=O)[O-])c1 show?
Response line: -0.52

Prompt line: Item O=[N+]([O-])c1ccc(N/N=C2\c3ccccc3-c3cccc(O)c32)c([N+](=O)[O-])c1 has what recorded log10(IC50)?
Response line: 0.88

Prompt line: Need log10(IC50) of C=CCOc1cccc2c(/N=N/c3ccc([N+](=O)[O-])cc3[N+](=O)[O-])c3cccc(OC(C)=O)c3c(O)c12 , thanks.
Response line: -1.00

Prompt line: For the compound Nc1ccc(/C(=N/Nc2ccc([N+](=O)[O-])cc2[N+](=O)[O-])c2ccccc2N)cc1 , what log10(IC50) is on record?
Response line: -0.15

Prompt line: Item Nc1ccc2c(/N=N/c3ccc([N+](=O)[O-])cc3[N+](=O)[O-])c3ccccc3c(O)c2c1N has what recorded log10(IC50)?
Response line: 0.70

----------
# Species on record: Homo sapiens
# assay_text: In vitro cytotoxicity against Human lung tumor cells; Not available.
# Type: functional
assay_metric: IC50

Solved cases (5 shown):
given_smiles: CC(=O)Oc1cccc2c(/N=N/c3ccc([N+](=O)[O-])cc3[N+](=O)[O-])c3cccc(O)c3c(O)c12
result: Not Active
//
given_smiles: COc1ccc2c(=NNc3ccc([N+](=O)[O-])cc3[N+](=O)[O-])c3ccc(OC)cc3oc2c1
result: Not Active
//
given_smiles: O=[N+]([O-])c1ccc(N(Cc2ccccc2)N=c2c3ccccc3oc3ccccc23)c([N+](=O)[O-])c1
result: Not Active
//
given_smiles: O=[N+]([O-])c1ccc(N/N=C(\c2ccccc2)c2ccc(O)cc2O)c([N+](=O)[O-])c1
result: Not Active
//
given_smiles: CC(=O)Oc1cccc2c1-c1nn(-c3ccccc3)c(=O)c3cccc(c13)C2=O
result: Not Active

We next turn to a different compound, shown below.
Prompt line: Would you kindly share the measured IC50 for CC(=O)Nc1ccc(C(=NNc2ccc([N+](=O)[O-])cc2[N+](=O)[O-])c2ccc(NC(C)=O)cc2)cc1 ?
Response line: Not Active
